System: P12-Ichikawa
Assay: cell viability relative to DMSO control; higher = less cytotoxic
Conditions: RPMI 5 mM glucose + 10% dialyzed FBS; 48 h; 0.00234 µM
observable: cell viability (%)
Enter your answer as a number in %; do not include the unit.

CN(C)c1ccccc1CN1CCCN(Cc2ccccc2N(C)C)C1c1ccncc1    88.5
COC1=CC2=C(C=C1CC3=C(F)C(=CC=C3)Cl)C(=O)\C(=C/N2[C@H](CO)C(C)C)C(O)=O    125
COc1cc2nc(N3CCN(C(=O)c4ccco4)CC3)nc(N)c2cc1OC    74.4
CN1CCN(CC1)C/2=N/C3=CC=CC=C3NC4=C2C=C(C)S4    99.9
CCN(CCO)CCCC(C)Nc1ccnc2cc(Cl)ccc12 (configuration not stated)    108

-- ask API: value(readout= cell viability, system= P12-Ichikawa, query= CCOC\1=C(/C(=O)NC2=CC=C(OC3=C(Cl)C(=NC=C3)N)C(=C2)F)C(=O)N(\C=C1)C4=CC=C(F)C=C4 )
-- reply 101

-- ask Recall the recorded cell viability for O=C(Nc1ccncc1)C(=O)c1cn(Cc2ccc(Cl)cc2)c2ccccc12 with P12-Ichikawa and state it.
-- reply 94.2

-- ask # value lookup — system P12-Ichikawa, readout cell viability, item N#C[C@@H]1C[C@@H]2C[C@@H]2N1C(=O)[C@@H](N)C12CC3CC(CC(O)(C3)C1)C2
-- reply 128

-- ask Item: Cc1ccnc(N[S+](=O)([O-])c2ccc(NC(=O)Nc3ccc([S+](=O)([O-])Nc4nccc(C)n4)cc3)cc2)n1 Test system: P12-Ichikawa Read-out: cell viability Value: ?
-- reply 97.1

-- ask Under P12-Ichikawa: cell viability value of CC(C)C1=N[N](C\2=C1C(=O)N\C(=N2)CC3=CC=C(OCCO)C=C3)C4=C(Cl)C=CC=C4Cl ?
-- reply 129

====

Tested on: SEM cells
Assay: cell viability relative to DMSO control; higher = less cytotoxic
Settings: RPMI 5 mM glucose + 10% FBS; 48 h; 0.00702 µM
observable: cell viability (%)
Just the number please, in %, no unit attached.

Cc1ccnc(N[S+](=O)([O-])c2ccc(NC(=O)Nc3ccc([S+](=O)([O-])Nc4nccc(C)n4)cc3)cc2)n1    79.4

-- ask Name the recorded cell viability for CON(C)C(=O)N1\N=C(/S[C@]1(CCCN)C2=CC=CC=C2)C3=CC(=CC=C3F)F .
-- reply 20.1

-- ask Fill in the blank: the reported cell viability of O=C(Nc1ccncc1)C(=O)c1cn(Cc2ccc(Cl)cc2)c2ccccc12 is ____.
-- reply 122

-- ask // returns reported cell viability for input O=C(O)CCc1ccc(NCc2cccc(Oc3ccccc3)c2)cc1
-- reply 108

====

System: NOMO1
Assay: AUC of viability dose-response curve (% viability x log10 dose units); higher = less sensitive
Conditions: RPMI 5 mM glucose + 10% dialyzed FBS; 48 h
observable: AUC of viability dose-response curve
Please give the numeric answer without any surrounding text.

CO[C@H]1C[C@H]2OC[C@@]2(OC(C)=O)[C@H]3[C@H](OC(=O)C4=CC=CC=C4)[C@]5(O)C[C@H](OC(=O)[C@H](O)[C@@H](NC(=O)OC(C)(C)C)C6=CC=CC=C6)/C(=C(/[C@@H](OC)C(=O)[C@]13C)C5(C)C)C    143

-- ask Find the recorded AUC of viability dose-response curve belonging to N[C@@H](Cc1ccc(N(CCCl)CCCl)cc1)C(=O)O and report it.
-- reply 415

-- ask Give its AUC of viability dose-response curve value. Item: CC(C)C[C@@H](N)[C@H](O)C(=O)N[C@H](C(=O)N[C@H](C(=O)N[C@@H](CC(=O)O)C(=O)O)C(C)C)C(C)C
-- reply 463

-- ask // AUC of viability dose-response curve lookup, key: CCCCc1ccc(N[S+](=O)([O-])c2ccc(C)c(C(=O)N3CCN(c4cccc(C)c4C)CC3)c2)cc1
-- reply 473

-- ask Return reported AUC of viability dose-response curve; argument: COc1cc([C@@H]2c3cc4c(cc3[C@H](O)[C@H]3COC(=O)[C@H]23)OCO4)cc(OC)c1OC
-- reply 138

-- ask Entry O=C(Nc1ccncc1)C(=O)c1cn(Cc2ccc(Cl)cc2)c2ccccc12 has what AUC of viability dose-response curve?
-- reply 311

-- ask Need AUC of viability dose-response curve of COc1cc(Oc2ccnc3cc(OC)c(OC)cc23)ccc1NC(=O)NC(C)c1nccs1 (configuration not stated) , thanks.
-- reply 462

Values were extracted from the supplement of paper PMC11451515.
